The reported measurements were obtained from PubChem BioAssay (NCI).

assay: NCI Yeast Anticancer Drug Screen. Data for the sgs1 mgt1 strain (AID 161); conditions: S. cerevisiae sgs1 mgt1 strain; at 50.0 µM unless noted
About 79,000 compounds went through this panel and 15% of them were active in at least one assay; those are over-represented in the sample as a whole. Active and inactive are the calls of the source. Rule as the data show it: active = growth inhibition above about 70%; inactive = the rest.
Respond with a class label; see active, inactive

Examples with answers:
ClN(Cl)c1nc(-c2ccccc2)nc(N(Cl)Cl)n1	inactive
O/C(=C/c1ncnc2ccccc12)c1cccc(Cl)c1	inactive
O=C(Nc1ccc(Br)cc1)C(Br)C(Br)c1ccccc1 (configuration not stated)	active
OC[C@H]1N[C@H](CO)[C@@H](O)[C@H]1O	inactive
CC(=O)N(C)c1ccccc1	inactive
CCOC(=O)[C@]12C3C=CC(C3)C1C(=O)C1OC12 (some centres not stated)	inactive

Would you kindly look at the next entry?
Problem: Dear all, I need the recorded test outcome for CC1(C)C2CC(C(=O)O)C1C2 (configuration not stated) , thank you.
Result: inactive
